measurement notes: NCI Yeast Anticancer Drug Screen. Data for the sgs1 mgt1 strain (AID 161);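 note: 0% = growth of cultures given vehicle only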
assay conditions: S. cerevisiae sgs1 mgt1 strain, at 5.0 µM (retest, dose inferred, filed as 0.5), active compounds read high
About 79,000 compounds went through this panel and 15% of them were active in at least one assay; those are over-represented in the sample as a whole.
Listed molecules paired with reported growth inhibition
Provide the reading as a plain figure in %.

Example molecules with recorded growth inhibition:
[
  {
    "molecule": "CCCNC(=O)c1cc2ccccc2cc1C(=O)OC",
    "recorded endpoint": "growth inhibition",
    "measured result": 51
  },
  {
    "molecule": "COc1ccc(CCC2(C)OCCC(C)O2)cc1 (stereo not given)",
    "recorded endpoint": "growth inhibition",
    "measured result": 16
  },
  {
    "molecule": "CCN1/C(=C/C(C)=C/c2sc3ccccc3[n+]2CC)Sc2ccccc21",
    "recorded endpoint": "growth inhibition",
    "measured result": 98
  },
  {
    "molecule": "Cn1c(=S)c2[nH]c(SCCN3CCCC3)nc2n(C)c1=O",
    "recorded endpoint": "growth inhibition",
    "measured result": 53
  },
  {
    "molecule": "CCCc1cc2c(cc1CS(=O)(=O)CC)OCO2",
    "recorded endpoint": "growth inhibition",
    "measured result": -7
  },
  {
    "molecule": "Cn1c(=O)nc2n(-c3ccc(Cl)cc3)c3cc(Cl)ccc3nc-2c1=O",
    "recorded endpoint": "growth inhibition",
    "measured result": 9
  }
]

The molecule listed as N=C(N)c1ccc(OCCCCOc2ccc(N)cc2Cl)cc1 shows growth inhibition equal to 3
